Hey, just so you know, these numbers are from PubChem BioAssay.

Overview of reported inhibition across a group of compounds:
- Target or system: L-lactate dehydrogenase (Plasmodium falciparum (isolate CDC / Honduras))
- Protocol: PfLDH activity inhibition – cell lysate, 3D7 strain, counter-screen for P. falciparum growth inhibition project (AID 2304);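 also: 0% = vehicle and 100% = reference inhibitor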
- Condition description: P. falciparum 3D7 crude extract, LDH APAD/NBT absorbance; at 2 µM; hits give high values
Measured endpoint: inhibition (%)

>>> print(df.to_string())
                                   compound  number
0  COc1ccc(CNC2CCN(C)CC2)cc1-c1cccc(S(=O)(=O)NCc2ccccc2)c1      -1
1  O=C(Cn1c(CCc2cccc(F)c2F)cc(=O)c2ccccc21)N(CCN1CCCC1)Cc1ccc(-c2ccc(C(F)(F)F)cc2)cc1      -2
2  CCCCCCNC(=O)C1Cc2c([nH]c3ccc(F)cc23)C2(CCN(Cc3ccccc3)CC2)N1 (centres undefined)      -1
3  CCCN(Cc1nnc(-c2ccco2)o1)C(=O)C1CCCN(C(=O)c2ccc(Cl)cc2)C1 (centres undefined)      -1
